Tested on: TO-N3-2 (biotin conjugate)
Test: pull-down binding Z-score (relative to library population); higher = stronger binding
Details: RNA library: Library-2
quantity.kind: pull-down binding Z-score

* CAGGUUUGUGAGAUACUUACCUG [U1snRNP5ss-14] | -0.792
* GUGAUAGGAUUUAUCAC [hsa-mir-4999] | -0.819
* UGUGGCCUGGGGGUUGAGGACCCCUGCUCUA [hsa-mir-645] | 2.75
* CAUAAACGAACUUAUGGAUUUGUUUAUG | -1.25
* ACACACACCAGACUAUGGAAGCCAGUGU [hsa-mir-147a] | 0.0135

* * *

System: TO-N3-2 (biotin conjugate)
Test: pull-down binding Z-score (relative to library population); higher = stronger binding
Details: RNA library: Library-2
Please assign a class to every record based on measured pull-down binding Z-score, with ranges low (below -0.3), intermediate (-0.3 to below 0.1), high (0.1 or more)

• GGUUGUAUGGUACAAGUAACUUGUGGUACAACU = intermediate
• GGCCUCACGGCC [IAV_invivo_PB1_2_Motif_9+IAV_invivo_PB1_2_Motif_9] = low
• CCAUUUCAUCUUUUAAAUGG = low
• UGGAAGCUCCAGGUGCCAACCACCUGCCUCUA [hsa-mir-6731] = high
• UCUUUAUUUGACAUGAGUAAAUUUCCCCUUAAAUUAAGGGGUACUGCUGUUAUGUCUUUAAAAGA [SHAPE_invitro_SARS-CoV-2_Motif_387] = low
• UGCCUACUACUGAUGACAUACAAUGUAAGUGCUCAUUUAGGCG [hsa-mir-5696] = intermediate
• GCUGAAAUUGUUGACACUGUGAGUGCUUUGGUUUAUGAUAAUAAGCUUAAAGCACAUAAAGACAAAUCAGC = low
• UUUACCAUUACUUUCAAUGGCAAA [hsa-mir-548a-3] = low
• UAAUAUGUAAUAUAAAUGUAUUG [hsa-mir-450a-2] = low
• CGGUCCCAUAUUGAACUCG [hsa-mir-4444-1_4444-2] = intermediate
• AGGCUCUGCAAGAUCAACCGAGCA [hsa-mir-330] = high
• GGAGAAGACUUUUCCUUUCCUCC [hsa-mir-4660] = low
• GGCUGGCCCCCUGCUUCGUGCCCAUCC [hsa-mir-937] = high
• CAGACUUUGUGAAUGAGUUUUACGCAUAUUUGCGUAAACAUUUCUCAAUGAUGAUACUCUCUG = low
• GCAGGGACCCCUCCAAGUUGGGGACGGCAGC [hsa-mir-6858] = high
• UGGCAUGGAAGUCA [DMSMaPseq_invitro_SARS-CoV-2_Motif_525] = low
• CUUUGUCUGACUACAAUAUUCAAAAG [hsa-mir-4426] = low
• GCGCUGCCAGAAACUGGCCCAGCGC [bulge-CC] = high
• UUGAACUUCAUUUCUCAUGCUCA [hsa-mir-6870] = high
• UAGGCACGGCACUUGUGAAAGAUCAGAAGCUGGUGUUUG = high
• AUUGCUGGACGCUGCCCUGGGCAU [hsa-mir-25] = high
• AGAAUUACUUAUCUGAGCCAAAGUAAUUCA [hsa-mir-1297] = low
• GCUGGUAAUGUUCAACUCAGGGUUAUUGGACAUUCUAUGC [SHAPE_invivo_SARS-CoV-2_Motif_203] = intermediate
• GGGAGCAAACCC [IAV_invivo_PB1_2_Motif_31+IAV_invivo_PB1_2_Motif_31] = high
• CCGGGCGCUGCUCUGACCCCUCGU [hsa-mir-187] = high

* * *

Some sequences, each annotated with its measured pull-down binding Z-score.
Tested on: TO-3-N3 (biotin conjugate)
Experiment: pull-down binding Z-score (relative to library population); higher = stronger binding
Conditions: RNA library: Library-2
quantity.kind: pull-down binding Z-score

• AUGAGAAGUGCUCUGCCUAUACAGUUGAACUCGGUACAGAAGUAAAUGAGUUCGCCUGUGUUGUGGCAGAUGCUGUCAU [SHAPE_invitro_SARS-CoV-2_Motif_53] = -0.626
• UGGAGGCUGACCUCUUACUUUCGGUCGGUCUUCUU [hsa-mir-4258] = -0.176
• GGCGAUUUUGUUAAAGCCACUUGCGAAUUUUGUGGCACUGAGAAUUUGACUAAAGAAGGUGCCACUACUUGUGGUUACUUACCCCAAAAUGCU = 0.452
• ACCAGUUAACUGGU [SHAPE_invitro_SARS-CoV-2_Motif_121] = -0.713
• CCAUGUGGUUGCGAGGUAUGAGUAAAACAUGG [hsa-mir-218-1] = -0.697
• GUUAAAAUAUGAC [SHAPE_invivo_SARS-CoV-2_Motif_271] = -0.672
• GCCUGCCCUGAGUCCCCCAGCAGGU [hsa-mir-3907] = 1.45
• AUAAUAAGAGGCUGGAUUUUUGGUACUACUUUAGAUUCGAAGACCCAGUCCCUACUUAUUGU = -0.735
• GCUAGUGCUGGCUCAAUGCAAUGC [hsa-mir-502] = -0.322
• GCUUGCAUACGUAGACCAUUCUUAUGUUGUAAAUGCUGUUACGACCAUGUCAUAUCAACAUCACAUAAAUUAGUCUUGUCUGUUAAUCCGUAUGUUUGCAAUGC [DMSMaPseq_invitro_SARS-CoV-2_Motif_294] = -0.654
• GUUCCUGUGAUUUUUC [hsa-mir-198] = -0.267
• GUUCGGGGGUUCCGACGGCGAC [hsa-mir-6790] = 2.61
• CCAGUAUCUGAAUUACUUACACCACUGG [SHAPE_invivo_SARS-CoV-2_Motif_58] = 0.91

* * *

System: TO-3-N3 (biotin conjugate)
Assay: pull-down binding Z-score (relative to library population); higher = stronger binding
Conditions: RNA library: Library-2
Recorded pull-down binding Z-score determines the group label, using label 0 (below -0.6), label 1 (-0.6 to below 0.2), label 2 (0.2 or more)

• CGGAGCAGUCACGUUGACGGAAUCCUCCG [hsa-mir-3183] = label 2
• UCUAAAUGAAACUCUUGUUACAAUGCCACUUGGCUAUGUAACACAUGGCUUAAAUUUGGA = label 0
• CUUAGCUGUCUUUGAUAAAAAUCUCUAUGACAAACUUGUUUCAAGCUUUUUGGAAAUGAAGAGUGAAAAGCAAGUUGAACAAAAGAUCGCUGAG [SHAPE_invivo_SARS-CoV-2_Motif_73] = label 2
• GCUCUACAAGAUGCUUAUUACAGAGC = label 2
• UUUUUCUUUACUUUUAAUGGCAAA [hsa-mir-548u] = label 0
• CACUCAGGCAGUGCCAUGAGC [hsa-mir-6811] = label 2
• GAUGUAGAAUUGUUUGAAAAUAAAACAACAUU = label 0
• AGGCUUGGCACUUGAGGGAAAGCCU [hsa-mir-8059] = label 2
• CGCUGCCUGGAAUUAACCCCGCUGUG [hsa-mir-636] = label 2
• GGGUGUAUGGUAUAGGGGUAGCCU [hsa-mir-3137] = label 2
• UUUGUGGAUUUUGAAAAGGUGCAGG [hsa-mir-15a] = label 1
• UCCUGUGGUAAUUUUAAAGUUACAAAAGGA = label 0
• UGGUUGGUUGGUUGGUUGGUUGGUUGGUUGGU [G4_r(UGGU)8] = label 2
• CUUUGAUAAAGCUGGUCAAAAGACUUAUGAAAG = label 0
• UAGUGAUGAAGUUGCGAGAGACUUGUCACUA = label 0
• GGCUUUGGCAUCUAUGAAAGCC [hsa-mir-4755] = label 2
• GUGGAUGGUUAUGUUCAC = label 1
• AUGGGGCAGCUGGGAUGGUCCAAAAGGGUGGCCUCA [hsa-mir-1226] = label 2
• CACCAAAGGGUUAAGGGUUUGCUCUGGAG [hsa-mir-4653] = label 1
• GGUCAAAUCAAUGAUAUGAUUUUAUC = label 0
• AAAUAAGUACGAUACUUACCUG [U1snRNP5ss-3] = label 1
• AAGGUAAAACCAACAGUGGUUGUUAAUGCAGCCAAUGUUUACCUU [DMSMaPseq_invitro_SARS-CoV-2_Motif_60] = label 1
• CAAUGAAGACAUGAAGACCCAAUGUCUUCAUUG [hsa-mir-4529] = label 0
• UGAUGUUUGUCA = label 1
• AUGGUUAUCUUACUUCUUCUUCUAAAACACCUGAAGAACAUUUUAUUGAAACCAU = label 0
• UCCGAUUUACAGGA [DMSMaPseq_invitro_SARS-CoV-2_Motif_227] = label 1
• AUGCAUUCUGCAU [SHAPE_invivo_SARS-CoV-2_Motif_273] = label 1
• UCCAGGAUCUGGGUUUUGAGGUCUUGG [hsa-mir-4309] = label 2
• CAGGUGCCUCAAAGGGCAUCCCACCUG [hsa-mir-3151] = label 1
• UUGGCCUUUAUUUUCAAUGGCAAG [hsa-mir-548b] = label 2
• CACUUCUUUCUUUGAGAGAAGUG = label 1
